- Subject of test: human PCSK9 reference (human, UniProt Q8NBP7 31-692)
- Method summary: ProteOn SPR, captured antibody, pH 7.6;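 further: antibodies captured via anti-human Fc on a GLC sensor chip, PCSK9 binding sensorgrams fitted to a 1:1 Langmuir model giving on and off rates, with KD derived from them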
Quantity name: kon (M⁻¹ s⁻¹)

Binder	Quantity name	Measurement units	Value observed
CL-274698 (antibody, V domains shown, Human antibody with a kappa light chain, derived from a PCSK9 knockout mouse) VH: QVQLQESGPGLVKPSGTLSLTCAVSGGSISSSKWWSWVRQPPGKGLEWIGETHYSGSTNYNPSLKSRVTISVDKSKNQFSLKLRSVTAADTAVYYCARVGATENFWGQGTLVTVSS VL: EIVLTQSPATLSLSPGERATLSCRASQSVFRYLAWYQQKPGQAPRLLIYDASTRATDIPARFSGSGSGTDFTLTISSLEPEDFAVYYCQQRSNWPPTFGQGTKVEIK	kon	M⁻¹ s⁻¹	1.35e+06
CL-148489 (antibody, V domains shown, Human antibody with a kappa light chain) VH: EVQLVESGGGLVQPGRSLRLSCTASGFTFADYVMHWVRQTPGKGLEWVSGISWNSYSINYADSVKGRFTISRDNAQNSLYLQMNSLRAEDTALYFCAKDITYDLLTGYNYNYGLDVWGQGTTVTVSS VL: DIVMTQTPLSLSVTPGQPASISCRSSQSLLHSDGKTYLYWYLQKPGQPPQLLIYEVSNRFSGVPDRFSGSGSGTDFTLKISRVEAEDVGLYYCMQSIQLPLTFGGGTKVEIK	kon	M⁻¹ s⁻¹	924000
CL-148219 (antibody, V domains shown, NLT motif in heavy chain framework 3 confirmed N-glycosylated by mass spectrometry, Human antibody, captured through anti-human Fc in the SPR assay) VH: QVHLQESGPGLVKPSETLSLTCTVSGGSISSYYWSWIRQYPGKGLEWIGYISYSGSSNYNPSLKRRVTISRDTSKNQFSLNLTSVIAADTAVYYCARNLMIRGAYGMDVWGQGTTVTVSS VL: DTVMTQSPLSLPVTPGEPASISCRSSQSLLHSNGYNYLDWYLQKAGQSPQLLIYLGSNRASGVPDRFSGSVSGTDFTLKISRVEAEDVGIYYCMQALQTPFTFGPGTKVDIK	kon	M⁻¹ s⁻¹	1.13e+06
CL-148219 QLT mutant (antibody, V domains shown) VH: QVHLQESGPGLVKPSETLSLTCTVSGGSISSYYWSWIRQYPGKGLEWIGYISYSGSSNYNPSLKRRVTISRDTSKNQFSLQLTSVIAADTAVYYCARNLMIRGAYGMDVWGQGTTVTVSS VL: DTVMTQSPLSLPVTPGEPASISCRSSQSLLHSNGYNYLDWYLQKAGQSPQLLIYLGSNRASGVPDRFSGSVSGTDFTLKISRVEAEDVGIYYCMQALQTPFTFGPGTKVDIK	kon	M⁻¹ s⁻¹	833000
